System: TK-10 renal
Assay: NCI tumour cell line growth inhibition, 48 h
MEASURED PARAMETER: TGI (µM)

{"COMPOUND": "Nc1nc(N)c2ncn(Cc3c(Cl)cccc3Cl)c2n1", "VALUE UNIT": "µM", "VALUE MODIFIER": ">", "MEASURED RESULT": 100}
{"COMPOUND": "COc1ccc(C(F)(F)F)cc1NC(=O)O/N=C(/Cl)C(C)C", "VALUE UNIT": "µM", "VALUE MODIFIER": "=", "MEASURED RESULT": 28.4}
{"COMPOUND": "COc1ccc(CCNC(=O)Cc2ccccc2CCO)cc1OC", "VALUE UNIT": "µM", "VALUE MODIFIER": ">", "MEASURED RESULT": 100}
{"COMPOUND": "CCOP(=O)(C/C(=N/NC(C)(C)C)C(=O)Nc1nc2ccc(C)cc2s1)OCC", "VALUE UNIT": "µM", "VALUE MODIFIER": ">", "MEASURED RESULT": 100}
{"COMPOUND": "CC(=O)OC1C(O)COC(Oc2c(C)c3c4c(c2O)[C@@H](C)CC[C@@H]4[C@@H](C)C[C@H]3C=C(C)C)C1O (stereo partly specified)", "VALUE UNIT": "µM", "VALUE MODIFIER": "=", "MEASURED RESULT": 29}
{"COMPOUND": "CCCCCCCCCCCCCCCC[N+](C)(C)C", "VALUE UNIT": "µM", "VALUE MODIFIER": "=", "MEASURED RESULT": 2.81}

###

Below is a list of entries, each paired with its recorded GI50 value.
Test system: BT-549 breast
Assay: NCI tumour cell line growth inhibition, 48 h
MEASURED PARAMETER: GI50

{"COMPOUND SMILES": "COc1cc(/C=C\\c2cc(/C=C\\c3ccc(O)c(OC)c3)n(C(=O)Nc3ccc(C(F)(F)F)cc3)n2)ccc1O", "MEASURED PARAMETER": "GI50", "MEASURED RESULT": "1960 nM"}
{"COMPOUND SMILES": "O=C1c2ccccc2C(=O)c2c1c(NCCNCCO)c1cc[nH]c1c2NCCNCCO", "MEASURED PARAMETER": "GI50", "MEASURED RESULT": "2750 nM"}
{"COMPOUND SMILES": "COc1ccc(-n2nc(C)c3c(Nc4ccc(NC(=O)Nc5cc(C(F)(F)F)ccc5F)cc4)ncnc32)cc1", "MEASURED PARAMETER": "GI50", "MEASURED RESULT": "2490 nM"}
{"COMPOUND SMILES": "Cn1c(-c2c(N)n(Cc3ccc(Cl)cc3)c3nc(C#N)c(C#N)nc23)nc2ccccc21", "MEASURED PARAMETER": "GI50", "MEASURED RESULT": "6440 nM"}
{"COMPOUND SMILES": "Cc1cc2cc(Oc3ccnc(Nc4cccc(CS(=O)(=O)NCCN(C)C)c4)n3)ccc2[nH]1", "MEASURED PARAMETER": "GI50", "MEASURED RESULT": "5030 nM"}
{"COMPOUND SMILES": "O=c1cc(-c2ccccc2)oc2cc(OCc3cn(Cc4ccc(F)cc4)nn3)cc(O)c12", "MEASURED PARAMETER": "GI50", "MEASURED RESULT": "7980 nM"}
{"COMPOUND SMILES": "CCCCCCCCOC(=O)c1cc(O)c(O)c(O)c1", "MEASURED PARAMETER": "GI50", "MEASURED RESULT": "2080 nM"}
{"COMPOUND SMILES": "CCN(CCc1ccc(F)cc1)c1ccc(CO)c(Cl)c1", "MEASURED PARAMETER": "GI50", "MEASURED RESULT": "11400 nM"}
{"COMPOUND SMILES": "COc1ccc(/C=C2/CCOC2=O)cc1", "MEASURED PARAMETER": "GI50", "MEASURED RESULT": "> 100000 nM"}
{"COMPOUND SMILES": "COc1cc(C)c(N(C)C(=O)CN(C)C)cc1Nc1nc(Nc2cccc(F)c2C(N)=O)c2cc[nH]c2n1", "MEASURED PARAMETER": "GI50", "MEASURED RESULT": "18400 nM"}
{"COMPOUND SMILES": "COc1ccc(OC)c(-c2cn3nc(-c4c[nH]c5ccc(Br)cc45)sc3n2)c1", "MEASURED PARAMETER": "GI50", "MEASURED RESULT": "2900 nM"}
{"COMPOUND SMILES": "COc1cc2c(c(OC)c1OC)C(=O)c1c-2n(CCCN)c(=O)c2cc([N+](=O)[O-])ccc12", "MEASURED PARAMETER": "GI50", "MEASURED RESULT": "1760 nM"}
{"COMPOUND SMILES": "CCCN(CCC)c1ccc(C=O)c(OC)c1", "MEASURED PARAMETER": "GI50", "MEASURED RESULT": "22000 nM"}
{"COMPOUND SMILES": "C=C(C)[C@@H]1CC[C@]2(C)[C@H](CC=C3[C@@H]4CC(C)(C)CC[C@]4(C(=O)OC)CC[C@]32C)[C@@]1(C)CC/C(N)=N/O", "MEASURED PARAMETER": "GI50", "MEASURED RESULT": "1930 nM"}
